Test system: CD2F1 mice, L1210 leukemia ip, survival T/C
TEST_SUMMARY: NCI In Vivo Anticancer Drug Screen. Data for tumor model L1210 Leukemia (intraperitoneal) in CD2F1 (CDF1) mice
CONDITIONS: endpoint: mean survival time; dose: 6.25 mg/kg/injection; schedule: Q04DX003 (ip); vehicle: saline with Tween-80; higher = longer survival
Inconclusive results and toxic doses are left out.
MEASURED_PROPERTY: T/C

# input molecule: N#CC[CH2][Sn]([I])([c]1ccccc1)[c]1ccccc1 ; wanted: its T/C
97 % of control

# input molecule: COc1ccc([I+]c2ccccc2)cc1 ; wanted: its T/C
93 % of control

# input molecule: O=C1C(Cl)=C(NCC2CCC(CO)CC2)C(=O)c2ccccc21 (stereo unspecified) ; wanted: its T/C
98 % of control

# input molecule: CCCCCCCCCCCCCCCCCCNC(=O)C[N+](C)(C)Cc1ccccc1 ; wanted: its T/C
103 % of control

# input molecule: ON(C(=Nc1ccccc1)c1ccccc1Cl)c1ccccc1 ; wanted: its T/C
102 % of control

# input molecule: CCN(CC)CCOc1ccc(/C(=C(\Cl)c2ccccc2)c2ccccc2)cc1 ; wanted: its T/C
94 % of control
